# System: SARS-CoV-2-NLuc
# procedure_summary: microbe, parasite or virus in culture
# Type: cell-based, SARS Coronavirus 2
# cond: Severe acute respiratory syndrome coronavirus, 48 h; read-out: MPro EC50
Output schema: class label derived from EC50. Mapping: low bracket: < 60 nM; middle bracket: ≥ 60 nM and < 400 nM; high bracket: ≥ 400 nM

Prompt: Which EC50 band matches `N#Cc1ccccc1-c1cc(F)c2c(=O)n(-c3cncc4ccccc34)c(=O)[nH]c2c1` ?
Completion: high bracket

Prompt: Field: class (EC50) — entry: `N#CCCn1c(=O)n(-c2cccnc2)c(=O)c2sc(-c3cc(F)c(F)cc3Cl)cc21`
Completion: middle bracket

Prompt: Hi there! Could you help me figure out the category for `COc1ccc(Cl)c(-c2ccc3c(=O)n(-c4cncc5ccccc45)c(=S)[nH]c3c2)c1` please?
Completion: high bracket

Prompt: Which band does `Cc1c(-c2ccccc2Cl)sc2c1c(=O)n(-c1cncc3ccccc13)c(=O)n2CC1CCCC1` fall in?
Completion: high bracket

Prompt: Which category fits this record: `COc1cnc(Cl)c(-c2cc3c(s2)c(=O)n(-c2cncc4cccc(F)c24)c(=O)n3CCC#N)c1`
Completion: low bracket

Prompt: State the class of the compound shown: `COc1cc(-c2cc3c(s2)c(=O)n(-c2cncc4cnn(C)c24)c(=O)n3CCC#N)c(Cl)cc1Cl`
Completion: low bracket

Prompt: Classify this compound: `N#CCCn1c(=O)n(-c2cncc(C(F)(F)F)c2)c(=O)c2sc(-c3ccccc3C#N)cc21`
Completion: middle bracket

Prompt: Place this compound in its band: `COc1ccc(Cl)c(-c2cc3[nH]c(=O)n(-c4cncc5ccc(N6CCOCC6)cc45)c(=O)c3s2)c1`
Completion: low bracket

Prompt: Into which bin does this compound go? `O=c1[nH]c2cc(-c3cccc4cccnc34)ccc2c(=O)n1-c1cncc2ccccc12`
Completion: high bracket

Prompt: Looking at `COc1cc(-c2cc3[nH]c(=O)n(-c4c(C)ccnc4F)c(=O)c3s2)c(Cl)cc1F` , which class would you pick?
Completion: low bracket

Prompt: Please classify: `N#Cc1ccccc1-c1nc2[nH]c(=O)n(-c3cncc4ccccc34)c(=O)c2s1`
Completion: high bracket

Prompt: State the class of the compound shown: `CNC(=O)CCn1c(=O)n(-c2cncc(C3CC3)c2)c(=O)c2sc(-c3ccccc3Cl)cc21`
Completion: high bracket

Prompt: Exercise: read the entry `O=c1[nH]c2cc(-c3ccccc3C3CC3)ccc2c(=O)n1-c1cncc2ccccc12` and state which class it falls under.
Completion: high bracket

Prompt: # bin lookup: classify `COc1cc(-c2cc3[nH]c(=O)n(-c4cncc5cnn(C)c45)c(=O)c3s2)c(C)cc1Cl` by its EC50
Completion: low bracket

Prompt: # classify by EC50 band: `N#CCCn1c(=O)n(-c2cccnc2)c(=O)c2sc(-c3ccc(F)cc3Cl)cc21`
Completion: middle bracket

Prompt: Kindly identify the class of `N#CCCn1c(=O)n(-c2cncc(OC(F)F)c2)c(=O)c2sc(-c3ccccc3C#N)cc21` .
Completion: middle bracket

Prompt: Category lookup for the compound `N#CCCn1c(=O)n(-c2cncc(C#N)c2)c(=O)c2sc(-c3ccccc3Cl)cc21`
Completion: low bracket

Prompt: Which of the defined bands does the recorded EC50 of `COc1cnc(Cl)c(-c2cc3c(s2)c(=O)n(-c2cncc(C(F)(F)F)c2)c(=O)n3CCC#N)c1` sit within?
Completion: middle bracket

Prompt: Given `Cc1c(Cl)cncc1-n1c(=O)c2sc(-c3ccccc3C#N)cc2n(CCC#N)c1=O` , name the class its EC50 places it in.
Completion: low bracket
